- Test system: Pichia kudriavzevii
- Experimental protocol: Antifungal activity against Candida krusei clinical isolate after 24 hrs by broth microdilution method
- Type: functional
Readout kind: MIC

>>> assay_result("O=C1CS/C(=N\\N=C2CCCC2)N1Cc1cccc(Cl)c1")
"16 µg/mL"

Q: Value lookup for MIC; key = CC(C)=N/N=C1\SCC(=O)N1Cc1cccc([N+](=O)[O-])c1
Ans: 2 µg/mL

Q: Queued: O=C1CS/C(=N\N=C2CCCC2)N1Cc1ccccc1F
Ans: 8 µg/mL

Q: Queued: C/C(=N\N=C1/SCC(=O)N1Cc1cccc(Cl)c1)c1cccs1
Ans: 2 µg/mL

Q: Queued: CC(C)=N/N=C1\SCC(=O)N1Cc1ccc(F)cc1
Ans: 16 µg/mL

Q: Queued: CC(C)=N/N=C1\SCC(=O)N1Cc1ccccc1F
Ans: 8 µg/mL
